B1: HDV Ribozyme (parent)
chain: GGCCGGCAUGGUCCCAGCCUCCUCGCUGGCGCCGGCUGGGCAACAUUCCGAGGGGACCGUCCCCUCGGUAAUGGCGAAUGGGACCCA

- Variants of: B1
- TEST_NAME: self-cleavage, relative activity (ratio to wild type); higher = more cleavage; co-transcriptional
Recorded self-cleavage, one value per entry.

C58U C62G :: 0.812

Query: Read off the recorded self-cleavage for C26U A70G
Reply: 0.831

Query: Read off the recorded self-cleavage for G2U U23A
Reply: 0.0391

Query: Read off the recorded self-cleavage for G25U G34C
Reply: 0.0396

Query: Read off the recorded self-cleavage for C49A G81C
Reply: 0.189

Query: Read off the recorded self-cleavage for G39A A77U
Reply: 0.176

Query: Read off the recorded self-cleavage for C61A A83C
Reply: 0.342

Query: Read off the recorded self-cleavage for C57U A83U
Reply: 0.475

Query: Read off the recorded self-cleavage for G38U C62G
Reply: 0.0831

Query: Read off the recorded self-cleavage for G38A U72C
Reply: 0.108

Query: Read off the recorded self-cleavage for G35U C61G
Reply: 0.286
